Recorded RP-LC retention time values for a group of molecules are listed next.
# Assay info: gradient 5% acetonitrile 3 min, to 50% in 2 min, to 85% in 15 min, held 3 min, 100 µL/min
# Condition info: column: Zorbax Extend-C18 2.1 x 50 mm; eluents: water / acetonitrile, 0.1% formic acid
Please respond with the number in s and leave the unit unwritten.

>>> recorded_value("N#Cc1c(NC(=O)c2ccc([N+](=O)[O-])cc2Cl)sc2c1CCCC2")
1050
>>> recorded_value("COc1ccc(C2(c3nc(-c4ccc5oc(C)nc5c4)no3)CC2)cc1")
651
>>> recorded_value("CCN1CCCCc2cc(C(=O)NC(C)COC)sc21 (centres undefined)")
905
>>> recorded_value("O=C(NCCn1c(=O)n(Cc2ccc(F)cc2)c2cccnc21)c1ccco1")
719
>>> recorded_value("O=c1n(Cc2c(F)cccc2Cl)nc2ccc(S(=O)(=O)N3CCCC3)cn12")
885
>>> recorded_value("O=C(c1cc2ccccc2[nH]1)N1CCN(c2ccc(=O)n(-c3cccc(Cl)c3)n2)CC1")
926
>>> recorded_value("Cc1noc(C2CN(C(=O)Nc3ccc4c(c3)CCC4)CC23CCOCC3)n1 (centres undefined)")
777
>>> recorded_value("CCn1c(N2CCCC(C(=O)Nc3cc(OC)cc(OC)c3)C2)cc(=O)n(C)c1=O (centres undefined)")
829

Enquiry: So what's the measured RP-LC retention time for this one? CCCCN(CC)C(=O)C1CCCN(c2nccc(C)n2)C1 (centres undefined)
Return: 752

Enquiry: So what's the measured RP-LC retention time for this one? O=C(Cc1cccs1)N1CCc2[nH]nc(-c3ccccc3)c2C1
Return: 839

Enquiry: So what's the measured RP-LC retention time for this one? Cc1ccc(CC(=O)Nc2ccc(-c3nc(Cn4nc(C)c(C)c4C)c(C)o3)cc2)cc1
Return: 998

Enquiry: So what's the measured RP-LC retention time for this one? Cn1nc(-c2ccccc2F)c2cc(C(=O)N3CCN(c4ccccn4)CC3)sc21
Return: 654

Enquiry: So what's the measured RP-LC retention time for this one? CC(C)(C)c1ccc(S(=O)(=O)NCC(=O)Nc2ccc3c(c2)OCO3)cc1
Return: 846

Enquiry: So what's the measured RP-LC retention time for this one? CCc1nc2cc(N3CCCC(C(=O)NCC4CC4)C3)cnc2nc1CC (centres undefined)
Return: 762

These measurements were taken from the METLIN SMRT retention time set (Domingo-Almenara et al. 2019).
